biological target: vasopressin-1 receptor (Rattus norvegicus); construct: cell membranes prepared from rat liver; from tissue; host or cells: rat liver membranes; assay: vasopressin-1 receptor binding, 3H-vasopressin-1 antagonist, cell membranes from rat liver; conditions: Table 30, oxytocin ligand library
Sequence (P30560 whole entry): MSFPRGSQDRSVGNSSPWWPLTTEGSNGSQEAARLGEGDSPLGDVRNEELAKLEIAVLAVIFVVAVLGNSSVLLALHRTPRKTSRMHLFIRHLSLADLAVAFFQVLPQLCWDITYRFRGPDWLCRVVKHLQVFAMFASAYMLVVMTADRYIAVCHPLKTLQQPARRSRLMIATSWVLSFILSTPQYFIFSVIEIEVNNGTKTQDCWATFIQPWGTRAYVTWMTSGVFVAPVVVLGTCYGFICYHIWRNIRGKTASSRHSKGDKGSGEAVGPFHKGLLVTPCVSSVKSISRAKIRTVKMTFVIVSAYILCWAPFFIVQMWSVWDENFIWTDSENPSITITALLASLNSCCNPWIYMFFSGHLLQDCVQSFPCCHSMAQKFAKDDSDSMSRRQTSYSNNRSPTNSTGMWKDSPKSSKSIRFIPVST
Ends that are not written are not given here.
Quick reference: % Inhibition at 1 µM Vasopressin-1 Receptor of the listed items.
assay metric: % Inhibition at 1 µM Vasopressin-1 Receptor

>  <substance>
Ala-Tyr-Ile-Gln-Asn-Cys-Ala-Pro-Leu-Gly-NH2 (AYIQNCAPLG-NH2; not fully specified (bridges); printed as Ala-Tyr-Ile-Gln-Asn-Cys-Ala-Pro-Leu-Gly-NH2; also: oxorhenium(V) N3S1 metal chelate (X-X-Cys)) [SEQ ID NO:155]

>  <target of assay>
vasopressin-1 receptor (Rattus norvegicus)

>  <result>
0%

$$$$
>  <substance>
Ala-Tyr-Cys-Ile-Gln-Asn-Ala-Pro-Leu-Gly-NH2 (AYCIQNAPLG-NH2; not fully specified (bridges); printed as Ala-Tyr-Cys-Ile-Gln-Asn-Ala-Pro-Leu-Gly-NH2; also: oxorhenium(V) N3S1 metal chelate (X-X-Cys)) [SEQ ID NO:158]

>  <target of assay>
vasopressin-1 receptor (Rattus norvegicus)

>  <result>
1%

$$$$
>  <substance>
Ala-Tyr-Ile-Gln-Asn-Ala-Cys-Ala-Leu-Gly-NH2 (AYIQNACALG-NH2; not fully specified (bridges); printed as Ala-Tyr-Ile-Gln-Asn-Ala-Cys-Ala-Leu-Gly-NH2; also: oxorhenium(V) N3S1 metal chelate (X-X-Cys)) [SEQ ID NO:154]

>  <target of assay>
vasopressin-1 receptor (Rattus norvegicus)

>  <result>
0%

$$$$

----------
biological target: uPA receptor (Homo sapiens); construct: endogenous in cells; host or cells: U937 cells; assay: uPA receptor-binding assay using U937 cells and ATF as competitive ligand; conditions: 1 µM metallopeptide; U937 cells; ATF as competitive receptor binding ligand

>  <substance>
Ac-Val-Ser-Asn-Lys-Tyr-Cys-Phe-Ser-Asn-Ile-His-Trp-NH2 (Ac-VSNKYCFSNIHW-NH2; not fully specified (bridges); printed as Ac-Val-Ser-Asn-Lys-Tyr-Cys-Phe-Ser-Asn-Ile-His-Trp-NH2; also: oxorhenium(V) N3S1 metal chelate (X-X-Cys)) [SEQ ID NO:7]

>  <target of assay>
uPA receptor (Homo sapiens)

>  <% Inhibition at 1 µM>
18.0%

$$$$
>  <substance>
Ac-Val-Ser-Asn-Cys-Lys-Tyr-Phe-Ser-Asn-Ile-His-Trp-NH2 (Ac-VSNCKYFSNIHW-NH2; not fully specified (bridges); printed as Ac-Val-Ser-Asn-Cys-Lys-Tyr-Phe-Ser-Asn-Ile-His-Trp-NH2; also: oxorhenium(V) N3S1 metal chelate (X-X-Cys)) [SEQ ID NO:5]

>  <target of assay>
uPA receptor (Homo sapiens)

>  <% Inhibition at 1 µM>
0.0%

$$$$
>  <substance>
Ac-Val-Ser-Asn-Lys-Tyr-Phe-Ser-Asn-Cys-Ile-His-Trp-NH2 (Ac-VSNKYFSNCIHW-NH2; not fully specified (bridges); printed as Ac-Val-Ser-Asn-Lys-Tyr-Phe-Ser-Asn-Cys-Ile-His-Trp-NH2; also: oxorhenium(V) N3S1 metal chelate (X-X-Cys)) [SEQ ID NO:10]

>  <target of assay>
uPA receptor (Homo sapiens)

>  <% Inhibition at 1 µM>
32.0%

$$$$
>  <substance>
Ac-Val-Ser-Asn-Lys-Tyr-Phe-Ser-Asn-lie-His-Trp-Cys-NH2 [SEQ ID NO:12]

>  <target of assay>
uPA receptor (Homo sapiens)

>  <% Inhibition at 1 µM>
0.0%

$$$$
>  <substance>
Ac-Val-Ser-Asn-Lys-Tyr-Phe-Cys-Ser-Asn-Ile-His-Trp-NH2 (Ac-VSNKYFCSNIHW-NH2; not fully specified (bridges); printed as Ac-Val-Ser-Asn-Lys-Tyr-Phe-Cys-Ser-Asn-Ile-His-Trp-NH2; also: oxorhenium(V) N3S1 metal chelate (X-X-Cys)) [SEQ ID NO:8]

>  <target of assay>
uPA receptor (Homo sapiens)

>  <% Inhibition at 1 µM>
0.0%

$$$$
>  <substance>
Ac-Val-Ser-Cys-Asn-Lys-Tyr-Phe-Ser-Asn-Ile-His-Trp-NH2 (Ac-VSCNKYFSNIHW-NH2; not fully specified (bridges); printed as Ac-Val-Ser-Cys-Asn-Lys-Tyr-Phe-Ser-Asn-Ile-His-Trp-NH2; also: oxorhenium(V) N3S1 metal chelate (X-X-Cys)) [SEQ ID NO:4]

>  <target of assay>
uPA receptor (Homo sapiens)

>  <% Inhibition at 1 µM>
0.0%

$$$$
>  <substance>
Ac-Val-Ser-Asn-Lys-Tyr-Phe-Ser-Asn-Ile-His-Cys-Trp-NH2 (Ac-VSNKYFSNIHCW-NH2; not fully specified (bridges); printed as Ac-Val-Ser-Asn-Lys-Tyr-Phe-Ser-Asn-Ile-His-Cys-Trp-NH2; also: oxorhenium(V) N3S1 metal chelate (X-X-Cys)) [SEQ ID NO:3]

>  <target of assay>
uPA receptor (Homo sapiens)

>  <% Inhibition at 1 µM>
106.0%

$$$$

----------
molecular target: uPA receptor (Homo sapiens, UniProt Q03405); construct: endogenous in cells; host or cells: U937 cells; assay: uPA receptor-binding assay using U937 cells and ATF as competitive ligand; settings: 1 µM metallopeptide; U937 cells; ATF as competitive receptor binding ligand
Sequence (Q03405 23-335): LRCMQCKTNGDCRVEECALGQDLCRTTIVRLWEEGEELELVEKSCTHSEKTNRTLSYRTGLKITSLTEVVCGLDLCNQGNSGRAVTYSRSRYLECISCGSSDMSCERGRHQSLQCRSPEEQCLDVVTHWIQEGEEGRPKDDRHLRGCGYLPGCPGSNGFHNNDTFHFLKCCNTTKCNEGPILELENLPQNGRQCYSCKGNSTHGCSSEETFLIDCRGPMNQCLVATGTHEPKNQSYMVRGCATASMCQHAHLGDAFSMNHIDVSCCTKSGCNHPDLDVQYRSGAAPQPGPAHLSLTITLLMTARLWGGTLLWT

>  <substance>
Ac-Val-Ser-Asn-Lys-Cys-Tyr-Phe-Ser-Asn-Ile-His-Trp-NH2 (Ac-VSNKCYFSNIHW-NH2; not fully specified (bridges); printed as Ac-Val-Ser-Asn-Lys-Cys-Tyr-Phe-Ser-Asn-Ile-His-Trp-NH2; also: oxorhenium(V) N3S1 metal chelate (X-X-Cys)) [SEQ ID NO:6]

>  <value unit>
%

>  <% Inhibition at 1 µM>
13.0

$$$$
>  <substance>
Ac-Val-Ser-Asn-Lys-Tyr-Phe-Ser-Asn-Ile-Cys-His-Trp-NH2 (Ac-VSNKYFSNICHW-NH2; not fully specified (bridges); printed as Ac-Val-Ser-Asn-Lys-Tyr-Phe-Ser-Asn-Ile-Cys-His-Trp-NH2; also: oxorhenium(V) N3S1 metal chelate (X-X-Cys)) [SEQ ID NO:11]

>  <value unit>
%

>  <% Inhibition at 1 µM>
0.0

$$$$
>  <substance>
Ac-Val-Ser-Asn-Lys-Tyr-Phe-Ser-Cys-Asn-Ile-His-Trp-NH2 (Ac-VSNKYFSCNIHW-NH2; not fully specified (bridges); printed as Ac-Val-Ser-Asn-Lys-Tyr-Phe-Ser-Cys-Asn-Ile-His-Trp-NH2; also: oxorhenium(V) N3S1 metal chelate (X-X-Cys)) [SEQ ID NO:9]

>  <value unit>
%

>  <% Inhibition at 1 µM>
35.0

$$$$
